- Measured target: Carboxypeptidase A (Bos taurus, UniProt P00730)
- Sequence (P00730 111-419): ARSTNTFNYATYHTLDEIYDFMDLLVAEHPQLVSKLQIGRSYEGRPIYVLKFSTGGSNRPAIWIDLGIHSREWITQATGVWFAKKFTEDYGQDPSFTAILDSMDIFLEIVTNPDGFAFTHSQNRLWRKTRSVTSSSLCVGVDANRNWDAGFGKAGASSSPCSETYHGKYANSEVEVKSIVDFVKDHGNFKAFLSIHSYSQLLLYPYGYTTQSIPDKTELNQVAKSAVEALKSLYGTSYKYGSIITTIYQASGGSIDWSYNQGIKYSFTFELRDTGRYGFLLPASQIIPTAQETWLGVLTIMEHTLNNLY
- Protocol notes: Carboxypeptidase A activity assay
- Format: biochemical
- Assay conditions: Ki class; compounds tested in 5% DMSO, 12 concentrations
pKi: −log10 of the molar value.
Observable: pKi

State its pKi for this molecule: CC(C)CC(N[C@@H](Cc1cn(Cc2ccc(C(F)(F)F)cc2)cn1)C(=O)O)C(=O)O (stereo partly drawn) 4.30 to 5.00

State its pKi for this molecule: CC(C)CC(NC(Cc1cccs1)C(=O)O)C(=O)O (stereo not drawn) < 4.30

State its pKi for this molecule: CC(C)CC(N[C@@H](Cc1c[nH]cn1)C(=O)O)C(=O)O (stereo in doubt) [AE] < 4.30

State its pKi for this molecule: O=C(O)[C@H](NC1(C(=O)O)CCCCC1)c1ccccc1 < 4.30

State its pKi for this molecule: CC(C)CC(N[C@@H](Cc1cncn1Cc1cccc2ccccc12)C(=O)O)C(=O)O (single isomer, unassigned) [GL] 4.30 to 5.00

State its pKi for this molecule: O=C(O)C(Cc1ccc(O)cc1)N[C@@H](Cc1c[nH]cn1)C(=O)O (single isomer, unassigned) [DN] < 4.30

State its pKi for this molecule: CC(C)[C@H](NC(CCc1ccccc1)C(=O)O)C(=O)O (stereo partly drawn) < 4.30

State its pKi for this molecule: CCCCC(N[C@@H](Cc1c[nH]cn1)C(=O)O)C(=O)O (single isomer, unassigned) [EF] < 4.30

State its pKi for this molecule: CC(C)CC(N[C@@H](Cc1cncn1Cc1ccc(C(=O)O)cc1)C(=O)O)C(=O)O (single isomer, unassigned) [GP] < 4.30

State its pKi for this molecule: O=C(O)C(CCc1ccccc1)N[C@@H](CC1CCCCC1)C(=O)O (stereo partly drawn) < 4.30

State its pKi for this molecule: CC(C)CC(N[C@@H](Cc1cncn1COCc1ccccc1)C(=O)NCCc1ccccc1)C(=O)O (single isomer, unassigned) [FM] < 4.30

State its pKi for this molecule: CC(C)C[C@H](N[C@@H](CCc1ccccc1)C(=O)O)C(=O)OC(C)(C)C < 4.30

###

- Measured target: ACE-2 (Homo sapiens, UniProt Q9BYF1)
- Construct: a stop codon inserted after the serine immediately preceding the transmembrane domain; made in house; host or cells: CHO K1 cells (transient transfection, purified from conditioned medium)
- Sequence (Q9BYF1 18-740 limits assumed): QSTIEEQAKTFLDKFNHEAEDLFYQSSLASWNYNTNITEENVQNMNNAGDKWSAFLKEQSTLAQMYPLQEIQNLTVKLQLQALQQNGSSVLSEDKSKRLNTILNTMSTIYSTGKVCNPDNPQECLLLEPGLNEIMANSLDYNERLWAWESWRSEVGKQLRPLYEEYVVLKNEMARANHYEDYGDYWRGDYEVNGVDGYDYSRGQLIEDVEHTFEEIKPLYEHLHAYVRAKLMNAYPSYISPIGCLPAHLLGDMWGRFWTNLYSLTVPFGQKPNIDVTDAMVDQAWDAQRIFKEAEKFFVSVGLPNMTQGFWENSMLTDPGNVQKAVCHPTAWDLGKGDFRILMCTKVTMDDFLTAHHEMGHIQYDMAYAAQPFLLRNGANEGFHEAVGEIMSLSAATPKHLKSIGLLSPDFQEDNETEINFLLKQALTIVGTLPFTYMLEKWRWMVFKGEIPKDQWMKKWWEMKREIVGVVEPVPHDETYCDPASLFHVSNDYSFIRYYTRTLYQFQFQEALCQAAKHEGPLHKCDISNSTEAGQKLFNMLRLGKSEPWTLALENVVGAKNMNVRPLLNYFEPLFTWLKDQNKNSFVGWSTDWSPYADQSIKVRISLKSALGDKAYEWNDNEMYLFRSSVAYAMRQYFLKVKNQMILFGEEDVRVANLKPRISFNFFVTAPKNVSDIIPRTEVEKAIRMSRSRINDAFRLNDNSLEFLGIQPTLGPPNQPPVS
- Protocol notes: ACE-2 Competitive Substrate Assay (ACS Assay)
- Assay type: biochemical
- Assay conditions: Ki class; compounds tested in 5% DMSO, 12 compound concentrations, Ki=Kiapp/(1+[S]/Km); read-out: Human ACE-2 Activity
Observable: Ki

State its Ki for this compound: CC(C)COc1cccc(C[C@H](N[C@@H](CC(C)C)C(=O)O)C(=O)O)c1 [ON] > 500 nM

State its Ki for this compound: Cc1ccc(Cn2cncc2C[C@H](NC(CC(C)C)C(=O)O)C(=O)O)cc1 (single isomer, unassigned) [HG] < 100 nM

State its Ki for this compound: CC(C)CC(N[C@@H](Cc1cncn1Cc1ccc(Cl)c(Cl)c1)C(=O)O)C(=O)O (single isomer, unassigned) [GX] > 500 nM

State its Ki for this compound: Cc1ccc(-c2cccc(C[C@H](N[C@@H](CC(C)C)C(=O)O)C(=O)O)c2)cc1 [LY] > 500 nM

State its Ki for this compound: CC(C)CC(N[C@@H](Cc1cncn1Cc1ccc(C(C)C)cc1)C(=O)O)C(=O)O (single isomer, unassigned) [HV] > 500 nM

State its Ki for this compound: CC(C)C[C@H](N[C@@H](CCNS(=O)(=O)c1ccc(-c2ccccc2)cc1)C(=O)O)C(=O)O [KF] 100 to 500 nM

State its Ki for this compound: CCOc1ccc2nc(NC(=O)C[C@H](N[C@@H](CC(C)C)C(=O)O)C(=O)O)sc2c1 [MP] 100 to 500 nM

State its Ki for this compound: CC(C)CC(N[C@@H](Cc1cncn1Cc1ccc([N+](=O)[O-])cc1)C(=O)O)C(=O)O (single isomer, unassigned) [IC] < 100 nM

State its Ki for this compound: COC(=O)[C@H](Cc1ccn(C(=O)OC(C)(C)C)n1)N[C@@H](CC(C)C)C(=O)OCc1ccccc1 [ML] > 500 nM

State its Ki for this compound: Cc1cc2nc(NC(=O)C[C@H](N[C@@H](CC(C)C)C(=O)O)C(=O)O)sc2cc1C [MC] > 500 nM

State its Ki for this compound: Cc1cc(C[C@H](NC(CC(C)C)C(=O)O)C(=O)O)no1 (stereo in doubt) [IM] > 500 nM

State its Ki for this compound: CC(C)C[C@H](N[C@@H](Cc1cccc(OCc2ccncc2)c1)C(=O)O)C(=O)O [NZ] > 500 nM

State its Ki for this compound: COc1ccc2ccccc2c1Cn1cncc1C[C@H](NC(CC(C)C)C(=O)O)C(=O)O (single isomer, unassigned) [IS] > 500 nM

State its Ki for this compound: CC(C)C[C@H](N[C@@H](Cc1ccc(-c2ccsc2)cc1)C(=O)O)C(=O)O [NF] < 100 nM

State its Ki for this compound: CC(C)CC(N[C@@H](Cc1cncn1Cc1ccc(F)cc1)C(=O)O)C(=O)O (single isomer, unassigned) [IJ] > 500 nM

###

- Measured target: UniProt Q5EGZ1
- Protocol notes: ACE-2 Competitive Substrate Assay, rat ACE-2
- Assay type: biochemical
- Assay conditions: Ki class; compounds tested in 5% DMSO, 12 concentrations
pKi: −log10 of the molar value.
Assignment: determine reported pKi for the given compounds.

State its pKi for this compound: CC(C)CC(N[C@@H](Cc1cncn1COCc1ccccc1)C(=O)O)C(=O)O (single isomer, unassigned) [FH] < 6.30

State its pKi for this compound: CC(C)CC(N[C@@H](Cc1cncn1Cc1cccc([N+](=O)[O-])c1)C(=O)O)C(=O)O (single isomer, unassigned) [GB] 6.30 to 7.00

State its pKi for this compound: O=C(O)[C@H](CC1CC1)N[C@H](CCc1ccccc1)C(=O)O [DE] < 6.30

###

Assignment: determine reported Ki for the given compounds.
- Measured target: ACE-2 (Rattus norvegicus, UniProt Q5EGZ1)
- Sequence (Q5EGZ1 18-805): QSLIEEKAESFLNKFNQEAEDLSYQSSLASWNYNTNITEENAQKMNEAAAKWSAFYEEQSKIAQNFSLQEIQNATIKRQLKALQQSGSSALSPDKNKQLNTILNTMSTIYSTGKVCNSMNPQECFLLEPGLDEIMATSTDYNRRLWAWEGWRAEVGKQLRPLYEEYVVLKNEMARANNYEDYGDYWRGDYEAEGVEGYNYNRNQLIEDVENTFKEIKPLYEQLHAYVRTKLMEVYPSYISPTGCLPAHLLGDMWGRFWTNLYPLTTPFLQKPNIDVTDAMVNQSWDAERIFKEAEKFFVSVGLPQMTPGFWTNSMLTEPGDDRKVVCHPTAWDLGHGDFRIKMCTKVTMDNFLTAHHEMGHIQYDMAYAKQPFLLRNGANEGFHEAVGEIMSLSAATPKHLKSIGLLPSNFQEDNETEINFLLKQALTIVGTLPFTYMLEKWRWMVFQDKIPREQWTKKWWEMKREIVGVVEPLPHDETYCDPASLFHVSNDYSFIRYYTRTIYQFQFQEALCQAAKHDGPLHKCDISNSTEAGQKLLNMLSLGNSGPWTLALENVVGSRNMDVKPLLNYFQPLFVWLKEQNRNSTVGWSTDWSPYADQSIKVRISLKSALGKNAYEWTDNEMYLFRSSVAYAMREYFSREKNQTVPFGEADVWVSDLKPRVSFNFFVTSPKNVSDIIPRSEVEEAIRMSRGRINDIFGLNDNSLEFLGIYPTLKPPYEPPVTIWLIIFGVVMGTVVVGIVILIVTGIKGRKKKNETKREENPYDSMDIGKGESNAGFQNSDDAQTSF
- Protocol notes: ACE-2 Competitive Substrate Assay, rat ACE-2
- Assay type: biochemical
- Assay conditions: Ki class; compounds tested in 5% DMSO, 12 concentrations

State its Ki for this compound: CC(C)CC(N[C@H](CC(=O)O)Cc1ccco1)C(=O)O (stereo partly shown) > 500 nM

State its Ki for this compound: CC(C)(C)C[C@H](N[C@H](CCc1ccccc1)C(=O)O)C(=O)O > 500 nM

State its Ki for this compound: CC(C)CC(N[C@@H](Cc1cncn1Cc1ccccc1)C(=O)O)C(=O)O (single isomer, unassigned) < 100 nM

State its Ki for this compound: CC(C)CC(N[C@@H](Cc1c[nH]cn1)C(=O)O)C(=O)O (single isomer, unassigned) [BK] 100 to 500 nM

###

- Measured target: ACE-2 (Homo sapiens, UniProt Q9BYF1)
- Construct: a stop codon inserted after the serine immediately preceding the transmembrane domain; made in house; host or cells: CHO K1 cells (transient transfection, purified from conditioned medium)
- Protocol notes: ACE-2 Competitive Substrate Assay (ACS Assay)
- Assay type: biochemical
- Assay conditions: Ki class; compounds tested in 5% DMSO, 12 compound concentrations, Ki=Kiapp/(1+[S]/Km); read-out: Human ACE-2 Activity
pKi: −log10 of the molar value.
Observable: pKi

State its pKi for this molecule: CC(C)C[C@H](N[C@@H](Cc1cncn1Cc1ccc(I)cc1)C(=O)O)C(=O)O > 7.00

State its pKi for this molecule: CC(C)C[C@H](N[C@@H](Cn1ccn(CC2CCCCC2)c1=O)C(=O)O)C(=O)O 6.30 to 7.00

State its pKi for this molecule: COc1ccc(-c2ccc(C[C@H](N[C@@H](CC(C)C)C(=O)O)C(=O)O)o2)cc1 6.30 to 7.00

State its pKi for this molecule: CC(C)C[C@H](N[C@@H](Cc1ccc(OCc2ccncc2)cc1)C(=O)O)C(=O)O > 7.00

###

- Measured target: UniProt Q5EGZ1
- Protocol notes: ACE-2 Competitive Substrate Assay, rat ACE-2
- Format: biochemical
- Assay conditions: Ki class; compounds tested in 5% DMSO, 12 compound concentrations
Observable: Ki

State its Ki for this compound: CC(C)CC(N[C@@H](Cc1cncn1Cc1ccc(C(C)C)cc1)C(=O)O)C(=O)O (single isomer, unassigned) 100 to 500 nM

State its Ki for this compound: CC(C)CC(N[C@@H](Cc1cncn1Cc1cc(Cl)cc(Cl)c1)C(=O)O)C(=O)O (single isomer, unassigned) < 100 nM

State its Ki for this compound: CC(C)CC(N[C@@H](Cc1cncn1CCC1CCCCC1)C(=O)O)C(=O)O (single isomer, unassigned) < 100 nM

State its Ki for this compound: Cc1ccc(Cn2cncc2C[C@H](NC(CC(C)C)C(=O)O)C(=O)O)cc1C (single isomer, unassigned) < 100 nM

State its Ki for this compound: CC(C)CC(N[C@@H](Cc1cncn1Cc1cccc(Cl)c1Cl)C(=O)O)C(=O)O (single isomer, unassigned) < 100 nM
